system: T-47D breast; assay: NCI-60 one-dose screen, 48 h (100 = growth as untreated, 0 = no growth, -100 = all killed); conditions: 10 µM unless noted
About 83,000 compounds went through this panel and 20% of them were active in at least one assay; those are over-represented in the sample as a whole. The source made the active and inactive calls. The calls were made as follows: active = growth percent below 10; inactive = the rest.
MEASUREMENT_TYPE: growth

Below are worked cases with known answers.
{"columns": ["COMPOUND", "TEST_RESULT"],
 "data": [
  ["OC1Cc2ccccc2C1", "102% (inactive)"],
  ["Nc1ncc([N+](=O)[O-])cn1", "103% (inactive)"],
  ["CC(C)c1ccccc1NC(=O)N1CCC(C(C)C)CC1", "111% (inactive)"]
]}

input: Given c1ccc(Oc2c3ccccc3nc3ccccc23)cc1 , respond with its growth.
output: 56.2% (inactive)

input: Given ClCc1cccc2c(CCl)cccc12 , respond with its growth.
output: 4.84% (active)

input: Given CNc1ccccc1C(N)=O , respond with its growth.
output: 98.1% (inactive)

input: Given CCOC(=O)c1ccc(C(C)(C)C)cc1 , respond with its growth.
output: 105% (inactive)

input: Given Cc1ccc2[nH]c3ccccc3c2c1 , respond with its growth.
output: 93% (inactive)

input: Given COc1ccc(NNS(=O)(=O)O)cc1 , respond with its growth.
output: 88.6% (inactive)

* * *

Listing: growth of selected compounds
test system: HOP-62 NSCLC; test: NCI-60 one-dose screen, 48 h (100 = growth as untreated, 0 = no growth, -100 = all killed); conditions: 10 µM unless noted
Compounds without any hit were thinned out: in the full panel of roughly 83,000, 20% have a hit.
Field format: number, assumed %, no unit text.

{"columns": ["COMPOUND", "SYSTEM_UNDER_TEST", "READOUT_UNITS", "growth"],
 "data": [
  ["O=C(NCc1ccccc1)c1cccc([N+](=O)[O-])c1", "HOP-62 NSCLC", "%", 94.6],
  ["NC(CO)(CO)c1ccccc1", "HOP-62 NSCLC", "%", 100],
  ["Cc1ccc(Cc2ccc(C)cc2)cc1", "HOP-62 NSCLC", "%", 98.1],
  ["O=C1CSc2ccccc2N1", "HOP-62 NSCLC", "%", 101],
  ["Cc1cc(C)cc(OCC(=O)O)c1", "HOP-62 NSCLC", "%", 95.5],
  ["CC12CCC3c4ccc(O)cc4CCC3C1CCC2=O (stereo not drawn)", "HOP-62 NSCLC", "%", 98.1],
  ["C=CC(C)C(C)(C)O (stereo not drawn)", "HOP-62 NSCLC", "%", 102],
  ["O=S(=O)(OCCOS(=O)(=O)c1ccccc1)c1ccccc1", "HOP-62 NSCLC", "%", 94.9]
]}

input: Given C=C(C)[C@@H]1CC[C@]2(CO)CC[C@]3(C)[C@H](CC[C@@H]4[C@@]5(C)CC[C@H](O)C(C)(C)[C@@H]5CC[C@]43C)[C@@H]12 , respond with its growth.
output: 43.2

input: Given O=c1n(CC2CO2)c(=O)n(CC2CO2)n1CC1CO1 (stereo not drawn) , respond with its growth.
output: 46

input: Given CC(=O)c1cccc(NS(=O)(=O)c2ccc(C)cc2)c1 , respond with its growth.
output: 89.9

input: Given O=c1cc(Cl)nc2ccccn12 , respond with its growth.
output: 103

input: Given Cc1ccc(/C=N/NC(N)=S)s1 , respond with its growth.
output: 102

* * *

tested on: SR leukemia; assay: NCI-60 one-dose screen, 48 h (100 = growth as untreated, 0 = no growth, -100 = all killed); settings: 10 µM unless noted
About 83,000 compounds went through this panel and 20% of them were active in at least one assay; those are over-represented in the sample as a whole.
Listing: growth of selected compounds
Field format: number, assumed %, no unit text.

Below are worked cases with known answers.
{"columns": ["COMPOUND", "SYSTEM_UNDER_TEST", "READOUT_UNITS", "TEST_RESULT"],
 "data": [
  ["OCCc1ccc(Cl)cc1", "SR leukemia", "%", 94.6],
  ["CC(=O)Nc1ccc(C(=O)c2ccc(S(=O)(=O)Nc3ccccc3)cc2)cc1", "SR leukemia", "%", 105],
  ["OCC(O)COc1ccc(Cl)cc1Cl (stereo not drawn)", "SR leukemia", "%", 101],
  ["Cc1cc(C(=O)NN)c(C#N)c(=O)[nH]1", "SR leukemia", "%", 116],
  ["C#CCSc1nnnn1-c1ccccc1", "SR leukemia", "%", 86.9]
]}

input: Given NCCCN1CCCC1=O , respond with its growth.
output: 88.2

input: Given Cc1ccccc1NC(=O)Oc1ccc(Cl)cc1C(=O)c1ccccc1 , respond with its growth.
output: 94.2

input: Given Nc1cc2c(cc1Cl)C(=O)c1ccccc1C2=O , respond with its growth.
output: 59.8

* * *

tested on: IGROV1 ovarian; assay: NCI-60 one-dose screen, 48 h; conditions: 10 µM unless noted
Compounds without any hit were thinned out: in the full panel of roughly 83,000, 20% have a hit. Active and inactive are the calls of the source. The calls were made as follows: active = growth percent below 10; inactive = the rest.
Result category, one only: 1 (yes) = active, 0 (no) = inactive

Look over these answered cases.
{"columns": ["COMPOUND", "SYSTEM_UNDER_TEST", "QUALITATIVE_LABEL"],
 "data": [
  ["Oc1ccc2ccccc2c1CN1CCOCC1", "IGROV1 ovarian", "0 (no)"],
  ["COc1cccc(N=CNc2cccc(OC)c2)c1", "IGROV1 ovarian", "0 (no)"],
  ["NC(=O)N1CCOCC1", "IGROV1 ovarian", "0 (no)"],
  ["N#Cc1ccc(OC(=O)Nc2cc(Cl)cc(Cl)c2)cc1", "IGROV1 ovarian", "0 (no)"],
  ["CC(=O)OCC1CCC(COC(C)=O)CC1 (stereo not drawn)", "IGROV1 ovarian", "0 (no)"]
]}

input: Name the outcome recorded for O=C(NCc1ccccc1)/C(=C/c1ccccc1)NC(=O)c1ccccc1 in the assay.
output: 0 (no)

input: Name the outcome recorded for C/C=C/C1OCC(CC)C(CCC)O1 (stereo not drawn) in the assay.
output: 0 (no)

input: Name the outcome recorded for COc1nc(Nc2cccc(C(F)(F)F)c2)nc(OC)n1 in the assay.
output: 0 (no)

input: Name the outcome recorded for O=S1(=O)c2ccccc2Oc2ccccc21 in the assay.
output: 0 (no)

input: Name the outcome recorded for COC1(OC)C2(Cl)C(Cl)=C(Cl)C1(Cl)C1COCC12 (stereo not drawn) in the assay.
output: 0 (no)

input: Name the outcome recorded for O=S(Cc1ccccc1)/C(=C/NC(=S)Nc1ccccc1)c1ccccc1 (stereo not drawn) in the assay.
output: 0 (no)

input: Name the outcome recorded for CC(=O)N(C(C)=O)c1ccc(C)cc1 in the assay.
output: 0 (no)

input: Name the outcome recorded for CC1(C)OC2C(CO)OC(n3ccc(=O)[nH]c3=O)C2O1 (stereo not drawn) in the assay.
output: 0 (no)

* * *

system: IGROV1 ovarian; assay: NCI-60 one-dose screen, 48 h (100 = growth as untreated, 0 = no growth, -100 = all killed); conditions: 10 µM unless noted
This is part of a sample that, as a whole, favours compounds with a hit. Of some 83,000 tested, about 20% had one in any assay.
MEASUREMENT_TYPE: growth (%)
Field format: number, assumed %, no unit text.

Below are worked cases with known answers.
{"columns": ["COMPOUND", "MEASUREMENT_TYPE", "READOUT_UNITS", "TEST_RESULT"],
 "data": [
  ["Cn1c2ccccc2c2nnc(NCCCCO)nc21", "growth", "%", 57.8],
  ["CCC(=O)Oc1c(C)cc(O)c2ccccc12", "growth", "%", 88.2],
  ["COc1ccc(-c2csc(NC(=O)Nc3nc(-c4ccc(OC)cc4)cs3)n2)cc1", "growth", "%", 92.4],
  ["COc1cc(C(=O)N2CCN(c3ccccc3)CC2)c2ccccc2n1", "growth", "%", 17.4],
  ["NNC(=O)CCCCl", "growth", "%", 106],
  ["CCCC(=O)c1cccs1", "growth", "%", 110]
]}

input: Given COc1cc2c(c(OC)c1OC)-c1ccc(SC)c(=O)cc1[C@@H](NC1OC(CO)C(O)C(O)C1O)CC2 (stereo partly specified) , respond with its growth.
output: 14.8

input: Given CC(=O)c1cccc(NS(=O)(=O)c2ccc(C)cc2)c1 , respond with its growth.
output: 62.8

* * *

Listing: growth of selected molecules
tested on: BT-549 breast; experiment: NCI-60 one-dose screen, 48 h (100 = growth as untreated, 0 = no growth, -100 = all killed); conditions: 10 µM unless noted
About 83,000 compounds went through this panel and 20% of them were active in at least one assay; those are over-represented in the sample as a whole. Calls of active or inactive are those of the source. The calls were made as follows: active = growth percent below 10; inactive = the rest.

Below are worked cases with known answers.
{"columns": ["MOLECULE", "growth"],
 "data": [
  ["CCOP(=O)(NC(c1ccccc1)c1ccccc1)OCC", "105% (inactive)"],
  ["Nc1cc(F)ccc1[N+](=O)[O-]", "103% (inactive)"],
  ["Nc1c(Br)cc(O)c2c1C(=O)c1ccccc1C2=O", "94.5% (inactive)"]
]}

input: Given C[n+]1cc2cc3c(cc2c2ccccc21)OCO3 , respond with its growth.
output: 20% (inactive)

input: Given O=S(=O)(c1ccc(NC(=S)NCc2cccnc2)cc1)N1CCCCC1 , respond with its growth.
output: 73.4% (inactive)

input: Given Cc1c(Cl)cccc1N=C=S , respond with its growth.
output: 87.9% (inactive)

input: Given O=S1(=O)c2ccccc2Oc2ccccc21 , respond with its growth.
output: 113% (inactive)

input: Given CC(C)c1ncc([N+](=O)[O-])n1C , respond with its growth.
output: 103% (inactive)

input: Given NC(=S)N/N=C/c1ccc(OC(=O)COc2ccc(Cl)cc2)cn1 , respond with its growth.
output: 55% (inactive)

input: Given Oc1ccc2ccccc2c1CN1CCOCC1 , respond with its growth.
output: 103% (inactive)

input: Given NNc1ncnc2nc[nH]c12 , respond with its growth.
output: 85% (inactive)

input: Given CC(=O)C[n+]1ccc(C)cc1Sc1ccccc1C , respond with its growth.
output: 90% (inactive)

input: Given CCOC(=O)CSCCC#N , respond with its growth.
output: 87.2% (inactive)

input: Given O=[n+]1ccn([O-])c2ccccc21 , respond with its growth.
output: 92.5% (inactive)

input: Given Oc1cccc(CNC2CCCCC2)c1 , respond with its growth.
output: 112% (inactive)

input: Given C/C(O)=C(/C=N/C(=S)Nc1ccccc1)C(=O)Nc1ccccc1C , respond with its growth.
output: 107% (inactive)

input: Given CC(=O)NCNC(C)=O , respond with its growth.
output: 100% (inactive)

input: Given CSc1cnc2ccccc2n1 , respond with its growth.
output: 94.6% (inactive)

input: Given CCCCCCCCCCC(=O)CCCCCCCCCC , respond with its growth.
output: 95.3% (inactive)

input: Given Cn1c(=O)[nH]c2ccccc2c1=O , respond with its growth.
output: 91.3% (inactive)

input: Given CCOC(OCC)C(=O)c1ccccc1 , respond with its growth.
output: 101% (inactive)

input: Given O=[N+]([O-])c1ccc(-c2nc(N(CCO)CCO)c3ccccc3n2)o1 , respond with its growth.
output: -88.5% (active)

input: Given Cc1[nH]c(=S)[nH]c(=O)c1C , respond with its growth.
output: 99.7% (inactive)
